Taken from patent US20250179059A1.

assayedSystem: human BRD4 bromodomain II (Homo sapiens)
Construct: human BRD4 bromodomain II [based on Genbank NM_058243, residues 349-460]; host or cells: E. coli
assayRemarks: Bromodomain binding assay (AlphaScreen), BRD4 BDII
experimentalSetup: AlphaScreen assay, Table C2; read-out: BRD4 BDII IC50
pIC50: −log10 of the molar value.
experimentalReadout: pIC50

>>> df
                                   compound     testvalue
0  Cn1ccn(-c2ccc(-c3cc(F)cc(-c4ccnc(N5CCC(C)(C(=O)O)C5)c4)c3O)cc2Cl)c1=O (stereo not drawn) [Example 769]  8.00 to 9.00

Item Cn1ccn(-c2c(Cl)cc(-c3cc(F)cc(-c4ccnc(N5CCNCC5)c4)c3O)cc2Cl)c1=O [Example 408] has what recorded pIC50?
7.00 to 8.00

Item CC(=O)Nc1ccc(-c2cccc(-c3cccc(-c4cn[nH]n4)c3)c2O)cc1F [Example 243] has what recorded pIC50?
< 7.00

Item CCN1CCN(c2cc(-c3cc(F)cc(-c4ccc(-n5ccn(C)c5=O)c(Cl)c4)c3O)ccn2)CC1 [Example 469] has what recorded pIC50?
9.00 to 11.00

Item C[C@@H]1CN(c2cc(-c3cccc(-c4ccc(N5CCCC5=O)c(F)c4)c3O)ccn2)CCN1 [Example 252] has what recorded pIC50?
8.00 to 9.00

Item Cc1cc(-c2cc(C)nc(N3CCNCC3)c2)c(O)c(-c2ccc(N3CCN(C)C3=O)c(Cl)c2)c1 [Example 337] has what recorded pIC50?
8.00 to 9.00

Item COCCCOc1cc(-c2cc(F)cc(-c3ccc(-n4ccn(C)c4=O)c(Cl)c3)c2O)cc(N2CCN[C@H](C)C2)n1 [Example 715] has what recorded pIC50?
9.00 to 11.00

Item CC(C)N1C2CCC1CN(c1cc(-c3cc(F)cc(-c4ccc(-n5ccn(C)c5=O)c(Cl)c4)c3O)ccn1)C2 [Example 730] has what recorded pIC50?
9.00 to 11.00

Item C[C@@H]1CN(c2cc(-c3cc(F)cc(-c4ccc(-n5ccn(C)c5=O)c(Cl)c4)c3O)ccn2)CCN1 [Example 413] has what recorded pIC50?
9.00 to 11.00

Item CC(=O)Nc1ccc(-c2cccc(-c3cccc(N4CC(C)NC(C)C4)c3)c2O)cc1F (stereo not drawn) [Example 200] has what recorded pIC50?
8.00 to 9.00

Item CC(=O)NC1CN(c2cc(-c3cc(F)cc(-c4ccc(-n5ccn(C)c5=O)c(Cl)c4)c3O)ccn2)CC12CC2 (stereo not drawn) [Example 767] has what recorded pIC50?
9.00 to 11.00

====

Test system: human SKM-1 acute myeloid leukemia cells
assayRemarks: SKM-1 antiproliferation cell-based assay (ATPlite)
experimentalSetup: Homo sapiens, SKM-1, 96 h, SKM-1 antiproliferation assay, 4 days, Table C2
experimentalReadout: GI50

Use these answered entries as a reference point.
                                   compound       testvalue
0  C[C@@H]1CN(c2cc(-c3cc(F)cc(-c4ccc(-n5ccn(C)c5=O)c(Cl)c4)c3O)cc3nccnc23)CCN1    0.3 to 30 nM
1  COC(=O)c1ncc(-c2cc(F)cc(-c3ccc(N4CCN(C)C4=O)c(Cl)c3)c2O)cc1N1CCNCC1       ≥ 3000 nM
2  CC1CN(c2cc(-c3cccc(-c4ccc(N5CCCC5=O)c(Cl)c4)c3O)ccn2)CC(C)N1 (stereo not shown)    30 to 300 nM
3  Cn1ccn(-c2ccc(-c3cc(F)cc(-c4ccnc(N5CCN[C@H](CC#N)C5)c4)c3O)cc2Cl)c1=O    0.3 to 30 nM
4  CC(=O)Nc1ccc(-c2cccc(-c3ccnc(N4CCC(O)CC4)c3)c2O)cc1F  300 to 3000 nM
5  C[C@@H]1CN(c2cc(-c3cc(F)cc(-c4ccc(-n5ccn(C)c5=O)c(Cl)c4)c3O)cc3c2ccn3C)CCN1    0.3 to 30 nM
6  Cn1ccn(-c2ccc(-c3cc(F)cc(-c4ccnc(N5CCNC6(CC6)C5)c4)c3O)cc2Cl)c1=O    30 to 300 nM
7  CC(=O)Nc1ccc(-c2cc(F)cc(-c3ccnc(N4CC5(CNC5)C4)c3)c2O)cc1Cl    30 to 300 nM
8  [2H]C([2H])([2H])n1ccn(-c2ccc(-c3cc(F)cc(-c4ccnc(N5CC6(CNC6)C5)c4)c3O)cc2Cl)c1=O    30 to 300 nM
9  Cc1ncc(-c2cc(F)cc(-c3ccc(N4CCN(C)C4=O)c(Cl)c3)c2O)cc1N1CCNCC1    30 to 300 nM

Item Cc1cc(-c2ccnc(N3CCN[C@H](C)C3)c2)c(O)c(-c2ccc(-n3ccn(C)c3=O)c(F)c2)c1 has what recorded GI50?
0.3 to 30 nM

Item CN1CCN(c2ccc(-c3cccc(-c4cc(C5CC5)nc(N5CCNCC5)c4)c3O)cc2Cl)C1=O has what recorded GI50?
30 to 300 nM

Item CCc1ncc(-c2cc(F)cc(-c3ccc(N4CCN(C)C4=O)c(Cl)c3)c2O)cc1N1CCNCC1 has what recorded GI50?
30 to 300 nM
